- Test system: hind paws of male rats
- measurement notes: Anti-inflammatory effect: acute carragheenin edema method
- Format: in vivo
- run conditions: Rattus norvegicus; 100 mg/kg oral, carragheenin edema, male rats (Table 2'); read-out: Anti-inf.: edema inhibition rate
experimental readout: inhibition in vivo at 100 mg/kg (%)
Output spec: scalar in %, unitless text.

// query Requested read-out: inhibition in vivo at 100 mg/kg. Entry: Cc1cc(C)c(C(=O)c2cccc(F)c2)c(C)c1
// result 18.1

// query Requested read-out: inhibition in vivo at 100 mg/kg. Entry: CCCCCCOc1ccc(C(=O)c2ccc(Cl)cc2)cc1
// result 12.5

// query Requested read-out: inhibition in vivo at 100 mg/kg. Entry: Cc1cc(C)c(C(=O)c2ccccc2I)c(C)c1
// result 15.9

// query Requested read-out: inhibition in vivo at 100 mg/kg. Entry: CC(C)c1ccc(C(=O)c2ccccc2F)cc1
// result 53.3

// query Requested read-out: inhibition in vivo at 100 mg/kg. Entry: Cc1ccc(C(=O)c2ccccc2Cl)c(C)c1
// result 37.2

// query Requested read-out: inhibition in vivo at 100 mg/kg. Entry: CCCCCCCCc1ccc(C(=O)c2ccc(I)cc2)cc1
// result 29
